Below: a set of entries, each annotated with reported Kd.
target-desc: T1, SUMO-^25-109MDM2 (UniProt Q00987 25-109)
T1 construct: range 25-109; Expressed in Rosetta (DE3) pLysS cells, MW=23 297 Da, used with the SUMO tag on; not shown: SUMO fusion tag (protein purified on Ni-NTA)
T1 sequence (Q00987 25-109): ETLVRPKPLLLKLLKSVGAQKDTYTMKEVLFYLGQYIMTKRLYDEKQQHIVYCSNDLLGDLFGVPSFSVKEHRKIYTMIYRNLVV
experimental-protocol: BLI, peptide on streptavidin sensors, global fit
*1 amine or outer side, *2 acyl side, *3 side chain or, on linkers, in order; H or OH if unused. [ ]: non-standard residue; d: D form. The star is where a group is joined. Hexa = hexylalanine = (2S)-2-aminononanoic acid, CCCCCCC[C@H](N[*:1])C(=O)[*:2]; Biotin = O=C1N[C@H]2[C@H](CS[C@H]2CCCCC(=O)*)N1; F2f = difluoro-L-phenylalanine; Cba = N[C@@H](CC1CCC1)C(=O)O; Anta = not defined here; F3f = not defined here
Express it in nM; write the number only.

# binder, measurement-name, unit-abbreviation, endpoint-result
records = [
    ("Biotin-LT[F2f]EHYWAQ[Cba]TSK-NH2 [peptide 11a]", "Kd", "nM", 2),
    ("Biotin-LT[F2f]EHY[Hexa]AQ[Cba]TSK-NH2 [peptide 10a]", "Kd", "nM", 0.5),
]

# context switch: different binder, same Kd
Value of measured Kd for the entry Biotin-LT[F3f]EHY[Anta]AQ[Cba]TSK-NH2 (reading uncertain; also: printed as LT(F3f)EHY(Anta)AQ(Cba)TSK) [peptide 22a] : 10

This collection of values is drawn from patent US20190300576A1.
